B1: library; numbered along this chain (parent)
chain: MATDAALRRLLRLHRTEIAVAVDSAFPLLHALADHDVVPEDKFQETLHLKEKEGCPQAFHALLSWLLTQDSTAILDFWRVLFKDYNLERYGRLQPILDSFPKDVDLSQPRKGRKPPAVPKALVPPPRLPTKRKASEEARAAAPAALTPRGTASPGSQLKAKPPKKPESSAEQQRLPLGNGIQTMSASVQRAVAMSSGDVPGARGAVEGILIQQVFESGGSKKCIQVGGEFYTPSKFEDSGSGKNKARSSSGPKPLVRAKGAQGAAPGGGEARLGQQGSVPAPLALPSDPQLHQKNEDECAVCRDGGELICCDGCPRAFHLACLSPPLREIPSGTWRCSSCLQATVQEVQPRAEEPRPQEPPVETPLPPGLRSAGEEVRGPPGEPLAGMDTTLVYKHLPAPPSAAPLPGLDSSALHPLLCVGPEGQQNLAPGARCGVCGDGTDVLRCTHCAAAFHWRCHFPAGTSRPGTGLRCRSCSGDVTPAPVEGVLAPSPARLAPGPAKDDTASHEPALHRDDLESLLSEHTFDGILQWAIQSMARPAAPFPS

# Variants of: B1
# assay.text: AIRE transcriptional activation functional score (insulin promoter-GFP; nonsense median 0, synonymous median 1) (normalised score); higher = higher AIRE activity (more reporter activation)
# details: with insulin promoter-GFP reporter in HEK293
Output t for AIRE transcriptional activation functional score not less than 0.9; output f otherwise.

Reference set (3 entries):
>>> cat("T441S")
"t"
>>> cat("Q69I")
"f"
>>> cat("P407L")
"t"

Given the entry `F77R` , answer whether its AIRE transcriptional activation functional score meets or surpasses 0.9.
f

Given the entry `T524M` , answer whether its AIRE transcriptional activation functional score meets or surpasses 0.9.
f

Given the entry `L66Q` , answer whether its AIRE transcriptional activation functional score meets or surpasses 0.9.
f

Given the entry `K159N` , answer whether its AIRE transcriptional activation functional score meets or surpasses 0.9.
t

Given the entry `V38N` , answer whether its AIRE transcriptional activation functional score meets or surpasses 0.9.
f

Given the entry `R257F` , answer whether its AIRE transcriptional activation functional score meets or surpasses 0.9.
f

Given the entry `K294S` , answer whether its AIRE transcriptional activation functional score meets or surpasses 0.9.
f

Given the entry `K501G` , answer whether its AIRE transcriptional activation functional score meets or surpasses 0.9.
t

Given the entry `G260F` , answer whether its AIRE transcriptional activation functional score meets or surpasses 0.9.
t

Given the entry `S338T` , answer whether its AIRE transcriptional activation functional score meets or surpasses 0.9.
t

Given the entry `A386I` , answer whether its AIRE transcriptional activation functional score meets or surpasses 0.9.
f

Given the entry `D36V` , answer whether its AIRE transcriptional activation functional score meets or surpasses 0.9.
f

Given the entry `P125L` , answer whether its AIRE transcriptional activation functional score meets or surpasses 0.9.
t

Given the entry `R92F` , answer whether its AIRE transcriptional activation functional score meets or surpasses 0.9.
f

Given the entry `E17G` , answer whether its AIRE transcriptional activation functional score meets or surpasses 0.9.
f

Reference source for all entries: the supplement of paper PMC12667976
